- targetOrTestSystem: TR-β (Homo sapiens, UniProt P10828)
- test: In vitro TR-β activity (in-house protocol)
- Assay type: cell-based
- conditionSet: Conc. 1 nM; read-out: TR-β Fold Induction w.r.t T3(100 nm)
Label rule, in plain words: fold induction at 0.001 µM of 10 and up is Criterion met, under 10 is Criterion not met.

// known answers, use as guide
Inquiry: Does Cc1cccc(C(=O)c2cc(Oc3c(Cl)cc(N(CC(=O)O)C(=O)Oc4ccc(O)cc4)cc3Cl)ccc2O)c1 [Example 66] have a reported fold induction at 0.001 µM of at least 10?
Reply text: Criterion met

Inquiry: Does O=C(O)CN(C(=O)Oc1ccc(O)cc1)c1cc(Cl)c(Oc2ccc(O)c(S(=O)(=O)N3CCCCCC3)c2)c(Cl)c1 [Example 57] have a reported fold induction at 0.001 µM of at least 10?
Reply text: Criterion met

Inquiry: Does CCOC(=O)N(CC(=O)O)c1cc(C)c(Oc2ccc(O)c(C(C)CC)c2)c(C)c1 (stereo not shown) [Example 18] have a reported fold induction at 0.001 µM of at least 10?
Reply text: Criterion not met

Inquiry: Does CCOC(=O)N(CC(=O)O)c1cc(Cl)c(Oc2ccc(O)c(C(=O)c3ccc(C(C)(C)C)cc3)c2)c(Cl)c1 [Example 24] have a reported fold induction at 0.001 µM of at least 10?
Reply text: Criterion met

Inquiry: Does CC(C)(C)c1cc(Oc2c(Cl)cc(N(CC(=O)O)C(=O)Oc3ccc(O)cc3)cc2Cl)ccc1O [Example 35] have a reported fold induction at 0.001 µM of at least 10?
Reply text: Criterion met

Next, consider the following compound.
Inquiry: Does O=C(O)CN(C(=O)Oc1ccc(O)cc1)c1cc(Cl)c(Oc2ccc(O)c(S(=O)(=O)NC3CCC3)c2)c(Cl)c1 [Example 51] have a reported fold induction at 0.001 µM of at least 10?
Reply text: Criterion not met

###

- targetOrTestSystem: TR-α (Homo sapiens, UniProt P10827)
- test: In vitro TR-α activity (in-house protocol)
- Assay type: cell-based
- conditionSet: Conc. 1 nM
# reported TR-α Fold Induction w.r.t T3(100 nm); entries follow
Write no unit; give the number alone.

Examples from the recorded data:
Per the record, CCC(C)c1cc(Oc2c(C)cc(N(CC(=O)O)CC(=O)O)cc2C)ccc1O (centres unmarked) [Example 21] has TR-α Fold Induction w.r.t T3(100 nm) of 17.17

Per the record, CN(C)S(=O)(=O)c1cc(Oc2c(Cl)cc(N(CC(=O)O)C(=O)Oc3ccc(O)cc3)cc2Cl)ccc1O [Example 38] has TR-α Fold Induction w.r.t T3(100 nm) of 09.36

Per the record, CCc1cc(Oc2c(Cl)cc(N(CC(=O)O)C(=O)Oc3ccc(O)cc3)cc2Cl)ccc1O [Example 48] has TR-α Fold Induction w.r.t T3(100 nm) of 08.16

More entries:
Per the record, O=C(O)CN(C(=O)Oc1ccc(O)cc1)c1cc(Br)c(Oc2ccc(O)c(S(=O)(=O)NC3CC4CCC3C4)c2)c(Br)c1 (centres unmarked) [Example 53] has TR-α Fold Induction w.r.t T3(100 nm) of 11.19

Per the record, CC(C)c1cc(Oc2c(Cl)cc(N(CC(=O)O)C(=O)Oc3ccc(O)cc3)cc2Cl)ccc1O [Example 32] has TR-α Fold Induction w.r.t T3(100 nm) of 23.36

Per the record, CC(C)(C)c1cc(Oc2c(Cl)cc(N(CC(=O)O)CC(=O)O)cc2Cl)ccc1O [Example 34] has TR-α Fold Induction w.r.t T3(100 nm) of 12.66

Per the record, O=C(O)CN(CC(=O)O)c1cc(Cl)c(Oc2ccc(O)c(S(=O)(=O)N3CCCCC3)c2)c(Cl)c1 [Example 33] has TR-α Fold Induction w.r.t T3(100 nm) of 9.66

Per the record, CCOC(=O)N(CC(=O)O)c1cc(C)c(Oc2ccc(O)c(C(C)CC)c2)c(C)c1 (centres unmarked) [Example 18] has TR-α Fold Induction w.r.t T3(100 nm) of 6.62

###

- targetOrTestSystem: UniProt P10828
- test: In vitro TR-β activity (in-house protocol)
- Format: cell-based
- conditionSet: Conc. 1 nM; read-out: TR-β Fold Induction w.r.t T3(100 nm)
Just so you know, the groups by fold induction at 0.001 µM go like this: 1 (below 10), 2 (10 to below 20), 3 (20 or more)

// known answers, use as guide
Inquiry: Note: place this molecule into its band. Item: `Cc1cc(N(CC(=O)O)CC(=O)O)cc(C)c1Oc1ccc(O)c(C(C)C)c1`
Reply text: 3

Inquiry: Note: place this molecule into its band. Item: `CN(C)S(=O)(=O)c1cc(Oc2c(Cl)cc(N(CC(=O)O)C(=O)Oc3ccc(O)cc3)cc2Cl)ccc1O`
Reply text: 2

Inquiry: Note: place this molecule into its band. Item: O=C(O)CN(C(=O)Oc1ccc(O)cc1)c1cc(Br)c(Oc2ccc(O)c(S(=O)(=O)NC3CC4CCC3C4)c2)c(Br)c1 (stereo not drawn)
Reply text: 2

Inquiry: Note: place this molecule into its band. Item: `CC(C)c1cc(Oc2c(Cl)cc(N(CC(=O)O)C(=O)Oc3ccc(O)cc3)cc2Cl)ccc1O`
Reply text: 3

Next, consider the following molecule.
Inquiry: Note: place this molecule into its band. Item: `Cc1cc(N(CC(=O)O)C(=O)Oc2ccc(O)cc2)cc(C)c1Oc1ccc(O)c(C(C)C)c1`
Reply text: 2

###

- targetOrTestSystem: TR-β (Homo sapiens, UniProt P10828)
- test: In vitro TR-β activity (in-house protocol)
- Assay type: cell-based
- conditionSet: Conc. 100 nM; read-out: TR-β Fold Induction w.r.t T3(100 nm)
- Protocol: Invitro TR-α & TR-β activities were determined as per in-house protocols and the results of representative compounds are provided in tables 1 & 2 below as a proof of the efficacies of the novel class of compounds disclosed above.
# reported fold induction at 0.1 µM; entries follow

Examples from the recorded data:
Record CCOC(=O)N(CC(=O)O)c1cc(Cl)c(Oc2ccc(O)c(C(=O)c3ccc(Cl)s3)c2)c(Cl)c1 [Example 17] has TR-β (Homo sapiens, UniProt P10828) fold induction at 0.1 µM equal to 72.8

Record CCOC(=O)N(CC(=O)O)c1cc(Cl)c(Oc2ccc(O)c(C(C)(C)C)c2)c(Cl)c1 [Example 13] has TR-β (Homo sapiens, UniProt P10828) fold induction at 0.1 µM equal to 80.6

Record CC(C)c1cc(Oc2c(Cl)cc(N(CC(=O)O)CC(=O)O)cc2Cl)ccc1O [Example 31] has TR-β (Homo sapiens, UniProt P10828) fold induction at 0.1 µM equal to 64.3

Please find the next molecule below.
Record O=C(O)CN(C(=O)Oc1ccc(O)cc1)c1cc(Cl)c(Oc2ccc(O)c(S(=O)(=O)N3CCCCCC3)c2)c(Cl)c1 [Example 57] has TR-β (Homo sapiens, UniProt P10828) fold induction at 0.1 µM equal to 23.6

###

# reported EC50; entries follow
- targetOrTestSystem: TR-α (Homo sapiens)
- test: In vitro TR-α activity (in-house protocol)
Give the value in nM but do not write nM after it.

Examples from the recorded data:
Record O=C(O)CN(C(=O)Oc1ccc(O)cc1)c1cc(Cl)c(Oc2ccc(O)c(Cc3ccccc3)c2)c(Cl)c1 [Example 50] has TR-α (Homo sapiens) EC50 equal to 23.3

Record CCOC(=O)N(CC(=O)O)c1cc(Cl)c(Oc2ccc(O)c(C(C)CC)c2)c(Cl)c1 (stereo not shown) [Example 2] has TR-α (Homo sapiens) EC50 equal to 119

Record O=C(O)CN(C(=O)Oc1ccc(O)cc1)c1cc(Cl)c(Oc2ccc(O)c(C(=O)c3cccc(Cl)c3)c2)c(Cl)c1 [Example 47] has TR-α (Homo sapiens) EC50 equal to 16.4

Record O=C(O)CN(C(=O)Oc1ccc(O)cc1)c1cc(Br)c(Oc2ccc(O)c(C(=O)c3ccc(Cl)cc3)c2)c(Br)c1 [Example 67] has TR-α (Homo sapiens) EC50 equal to 49

Record O=C(O)CN(C(=O)Oc1ccc(O)cc1)c1cc(Cl)c(Oc2ccc(O)c(S(=O)(=O)N3CCCC3)c2)c(Cl)c1 [Example 63] has TR-α (Homo sapiens) EC50 equal to 337

More entries:
Record CCOC(=O)N(CC(=O)O)c1cc(Cl)c(Oc2ccc(O)c(Cc3ccccc3)c2)c(Cl)c1 [Example 3] has TR-α (Homo sapiens) EC50 equal to 274

Record O=C(O)CN(C(=O)Oc1ccc(O)cc1)c1cc(Cl)c(Oc2ccc(O)c(C(O)c3ccc(Cl)cc3)c2)c(Cl)c1 (stereo not shown) [Example 56] has TR-α (Homo sapiens) EC50 equal to 13.4

###

- targetOrTestSystem: TR-β (Homo sapiens, UniProt P10828)
- Sequence (P10828 1-461): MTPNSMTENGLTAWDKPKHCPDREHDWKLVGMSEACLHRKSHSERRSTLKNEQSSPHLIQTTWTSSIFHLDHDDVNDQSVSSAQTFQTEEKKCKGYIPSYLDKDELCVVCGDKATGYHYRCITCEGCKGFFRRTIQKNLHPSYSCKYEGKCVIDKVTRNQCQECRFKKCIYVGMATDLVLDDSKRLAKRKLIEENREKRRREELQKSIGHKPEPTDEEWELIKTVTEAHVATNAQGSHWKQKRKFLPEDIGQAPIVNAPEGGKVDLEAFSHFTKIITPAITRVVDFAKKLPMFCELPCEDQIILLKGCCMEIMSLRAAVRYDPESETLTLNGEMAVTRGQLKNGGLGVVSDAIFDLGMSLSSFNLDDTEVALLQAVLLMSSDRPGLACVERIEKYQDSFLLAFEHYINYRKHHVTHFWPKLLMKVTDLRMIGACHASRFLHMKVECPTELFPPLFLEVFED
- test: In vitro TR-β activity (in-house protocol)
- Type: cell-based
- conditionSet: Conc. 10 nM; read-out: TR-β Fold Induction w.r.t T3(100 nm)
reportedProperty: fold induction at 0.01 µM
Write no unit; give the number alone.

Examples from the recorded data:
Per the record, CN(C)S(=O)(=O)c1cc(Oc2c(Cl)cc(N(CC(=O)O)C(=O)Oc3ccc(O)cc3)cc2Cl)ccc1O [Example 38] has fold induction at 0.01 µM of 16.9

Per the record, CCOC(=O)N(CC(=O)O)c1cc(Cl)c(Oc2ccc(O)c(C(C)(C)C)c2)c(Cl)c1 [Example 13] has fold induction at 0.01 µM of 44.2

Per the record, CC(C)NS(=O)(=O)c1cc(Oc2c(Cl)cc(N(CC(=O)O)C(=O)Oc3ccc(O)cc3)cc2Cl)ccc1O [Example 45] has fold induction at 0.01 µM of 18.7

More entries:
Per the record, CCOC(=O)N(CC(=O)O)c1cc(C)c(Oc2ccc(O)c(C(C)CC)c2)c(C)c1 (stereo not shown) [Example 18] has fold induction at 0.01 µM of 18.6

Per the record, Cc1cccc(C(=O)c2cc(Oc3c(Cl)cc(N(CC(=O)O)C(=O)Oc4ccc(O)cc4)cc3Cl)ccc2O)c1 [Example 66] has fold induction at 0.01 µM of 25.9

Per the record, CCc1cc(Oc2c(Cl)cc(N(CC(=O)O)C(=O)Oc3ccc(O)cc3)cc2Cl)ccc1O [Example 48] has fold induction at 0.01 µM of 19.4

Per the record, CCOC(=O)N(CC(=O)O)c1cc(Cl)c(Oc2ccc(O)c(C(=O)c3ccc(Cl)cc3)c2)c(Cl)c1 [Example 20] has fold induction at 0.01 µM of 40.7
